Species: Rattus norvegicus
Test: DrugMatrix - Regimen: Daily Repeat
Format: toxicity, organism-based, Sprague-Dawley
Parameters: regimen Daily Repeat, gender Male, age 6-8 weeks
Settings: in vivo, po, 0 mg/kg, 72 h, tissue Blood, route oral GAVAGE, dose level Control, time 3 day, […]
readoutName: ABSOLUTE MONOCYTE (CELLS/uL)
Dear colleague, please return just the value in CELLS/uL, with no unit written.

**Q:** Consider the molecule C[C@H]1O[C@@H](O[C@H]2[C@@H](O)C[C@H](O[C@H]3[C@@H](O)C[C@H](O[C@H]4CC[C@@]5(C)[C@H](CC[C@@H]6[C@@H]5C[C@@H](O)[C@]5(C)[C@@H](C7=CC(=O)OC7)CC[C@]65O)C4)O[C@@H]3C)O[C@@H]2C)C[C@H](O)[C@@H]1O and give its measured ABSOLUTE MONOCYTE.
**A:** 127

**Q:** Consider the molecule O=NN(CCCl)C(=O)NC1CCCCC1 and give its measured ABSOLUTE MONOCYTE.
**A:** 214.17

**Q:** Consider the molecule Cc1ccc(-c2cc(C(F)(F)F)nn2-c2ccc(S(N)(=O)=O)cc2)cc1 and give its measured ABSOLUTE MONOCYTE.
**A:** 292

**Q:** Consider the molecule CCOC(=O)C1=C(COCCN)NC(C)=C(C(=O)OC)C1c1ccccc1Cl (stereo not given) and give its measured ABSOLUTE MONOCYTE.
**A:** 214.17

**Q:** Consider the molecule CC(C)(Oc1ccc(Cl)cc1)C(=O)O and give its measured ABSOLUTE MONOCYTE.
**A:** 164
